experiment: LD50 mice per os (acute toxicity); details: mouse, in vivo, po
MEASURE: LD50

Reported LD50 for "CC(C)(Oc1cccc(C(=O)c2ccccc2)c1)C(=O)O" was 350 mg/kg

---

assay: LD-50 mice i.p. (acute toxicity); settings: mouse, in vivo, ip
# strict inequality: LD50 < 400 mg/kg yields true (1), everything else yields false (0)

Sample answers from the record:
{"MOLECULE": "CC(Oc1cccc(C(=O)c2ccccc2)c1)C(=O)O (stereo not shown)", "CAT": "false (0)"}
{"MOLECULE": "Cc1ccc(C(=O)c2cccc(OC(C)(C)C(=O)O)c2)cc1C", "CAT": "false (0)"}
{"MOLECULE": "Cc1ccc(C(=O)c2cccc(OC(C)(C)C(=O)O)c2)c(C)c1", "CAT": "false (0)"}
{"MOLECULE": "Cc1ccccc1C(=O)c1cccc(OC(C)(C)C(=O)O)c1", "CAT": "false (0)"}

Task item: Quick check: LD50 of "Cc1ccc(C(=O)c2cccc(OCC(=O)O)c2)cc1" under 400 mg/kg?
Reply: false (0)

Task item: Quick check: LD50 of Cc1ccc(C(=O)c2cccc(OC(C)C(=O)O)c2)cc1 (stereo not shown) under 400 mg/kg?
Reply: false (0)

Task item: Quick check: LD50 of "O=C(O)COc1cccc(C(=O)c2ccc(Cl)cc2Cl)c1" under 400 mg/kg?
Reply: true (1)

Task item: Quick check: LD50 of "COc1ccc(C(=O)c2cccc(OC(C)(C)C(=O)O)c2)cc1" under 400 mg/kg?
Reply: true (1)

Task item: Quick check: LD50 of "CC(C)(Oc1cccc(C(=O)c2ccccc2)c1)C(=O)O" under 400 mg/kg?
Reply: true (1)
